testedOn: Solute carrier family 2, facilitated glucose transporter member 1 (Homo sapiens) (UniProt P11166)
Sequence (P11166 whole entry): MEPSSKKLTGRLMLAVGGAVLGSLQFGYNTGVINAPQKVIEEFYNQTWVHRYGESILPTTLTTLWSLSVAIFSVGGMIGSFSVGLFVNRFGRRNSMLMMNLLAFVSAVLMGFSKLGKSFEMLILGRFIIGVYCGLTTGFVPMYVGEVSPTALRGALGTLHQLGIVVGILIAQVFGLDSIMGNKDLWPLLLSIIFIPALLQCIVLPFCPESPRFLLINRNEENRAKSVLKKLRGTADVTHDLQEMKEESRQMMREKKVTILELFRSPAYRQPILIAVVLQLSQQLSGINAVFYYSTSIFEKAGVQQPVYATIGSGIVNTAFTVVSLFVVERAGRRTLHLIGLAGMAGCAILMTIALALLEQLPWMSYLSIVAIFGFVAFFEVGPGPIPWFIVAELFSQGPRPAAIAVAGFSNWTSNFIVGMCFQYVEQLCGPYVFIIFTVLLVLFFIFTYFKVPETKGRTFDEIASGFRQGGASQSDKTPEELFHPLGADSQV
methodNotes: ST_JUDE_LEISH: Cytotoxicity at 2uM final concentration against transgenic Leishmania Mexicana promastigotes LmGLUT1 that are glucose transport deficient and complemented with the human glucose transporter GLUT1. Activity is measured by DNA content using SYBR green in vitro
Format: functional
measuredParameter: inhibition (%)
Respond with the bare value in %.

// solved cases for inhibition follow
O=C(Nc1cccc(Cl)c1Cl)N1CCc2cc3nccc(N4CCN5CCC[C@H]5C4)c3cc21; -0.2
Nc1nc(N)c2c(ccc3c2ccn3Cc2ccc(OCc3ccccc3)cc2)n1; 2.4
O=C(NCCCCN1CC=C(c2ccc3c(c2OCc2ccccc2)CCCC3)CC1)c1ccc(-c2ccc(C(F)(F)F)cc2)cc1; -1.51

I'd like to know its inhibition. The molecule in question is N#Cc1ccc(C(=O)Nc2cccc(-c3ccc(CN4CCCC4)cc3)c2)cc1 11.4

I'd like to know its inhibition. The molecule in question is COc1ccc(CCN(C)CCCN2CCC(NC(=O)c3cccc4c(=O)c5ccccc5sc34)CC2)cc1OC 2.6

* * *

testedOn: Glucose transporter (Leishmania mexicana) (UniProt O61059)
methodNotes: ST_JUDE_LEISH: Cytotoxicity at 2uM final concentration against transgenic Leishmania Mexicana promastigotes LmGT2 that are glucose transport deficient and complemented with the L. Mexicana glucose transporter 2. Activity is measured by DNA content using SYBR green in vitro
Type: functional
measuredParameter: inhibition (%)
Respond with the bare value in %.

// solved cases for inhibition follow
CCN1CCN(c2cc(C)c3cc(NC(=O)c4cccc(C(F)(F)F)c4)ccc3n2)CC1; 1.11
O=S(=O)(NCCN1CCCC1)c1ccc(-c2cccc(CNCCc3cccs3)c2)cc1; 3.91
O=C(Nc1ccc2c(c1)OCO2)NC1CCN(c2ccnc(NCc3ccc(F)cc3)n2)CC1; 0.61
CCCNCc1ccc(-c2ccc(CN(CCOC)C(=O)CCCOCc3ccccc3)cc2)nc1; 0.45

I'd like to know its inhibition. The compound in question is COc1cc2nc(N[C@@H](CO)c3ccccc3)nc(NCc3ccccc3)c2cc1OC 1.61

I'd like to know its inhibition. The compound in question is Cc1nc2ccc(-c3nc4cc(N)ccc4[nH]3)cc2[nH]1 1.44

I'd like to know its inhibition. The compound in question is COc1ccc(C(=O)N2CCC(C(=O)NC(C)c3ccc(-n4ccnc4)cc3)CC2)c2ccccc12 (centres undefined) -0.59

I'd like to know its inhibition. The compound in question is Cc1cc(N[C@@H](CC(C)C)C(=O)NC2CCCC2)nc(NCCc2ccc(F)cc2)n1 0.03

I'd like to know its inhibition. The compound in question is CCC1CN(S(=O)(=O)c2ccc3c(c2)NC(=O)CC(=O)N3)c2cc(Cl)ccc2O1 (centres undefined) 3.29

* * *

testedOn: Solute carrier family 2, facilitated glucose transporter member 1 (Homo sapiens)
methodNotes: ST_JUDE_LEISH: Cytotoxicity at 2uM final concentration against transgenic Leishmania Mexicana promastigotes LmGLUT1 that are glucose transport deficient and complemented with the human glucose transporter GLUT1. Activity is measured by DNA content using SYBR green in vitro
Assay type: functional
measuredParameter: inhibition (%)
Respond with the bare value in %.

// solved cases for inhibition follow
CCN(CC)c1ccc2nc(N)nc(N)c2c1; 8.53
CCOC(=O)c1cc(C(=O)NCCCCN2CCC(c3cn(C)c4ccccc34)CC2)ccc1-c1ccc(C(F)(F)F)cc1; 2.37
CC(C)(C)C(=O)N1CCN(c2ccc([N+](=O)[O-])c(NC3CC3)c2)CC1; 2.03
CC(Cc1ccc(C(=O)OCCOC(=O)c2ccc(CC(C)NCC(O)c3cccc(C(F)(F)F)c3)cc2)cc1)NCC(O)c1cccc(C(F)(F)F)c1 (centres undefined); 1.7
O=C(Nc1cccc(N2CCC(NCCCc3ccncc3)CC2)c1)c1cccc(C(F)(F)F)c1; 3.33
Cc1cccc2nc(-c3cccc(-c4cccc(NC(=O)C5CC(=O)Nc6ccccc65)c4)c3)[nH]c12 (centres undefined); 4.88
Oc1ccc2c(c1CNC1CCCCC1)CCCC2; 5.27
CS(=O)(=O)n1c(CN2CCN(c3ncc(C(F)(F)F)cc3Cl)CC2)nc2ccccc21; 8.28

Here is another compound to look at.
I'd like to know its inhibition. The compound in question is CC1(C)NC(N)=NC(=N)N1OCCCc1cccc(C(F)(F)F)c1 -0.43

* * *

testedOn: Glucose transporter (Leishmania mexicana)
methodNotes: ST_JUDE_LEISH: Cytotoxicity at 2uM final concentration against transgenic Leishmania Mexicana promastigotes LmGT2 that are glucose transport deficient and complemented with the L. Mexicana glucose transporter 2. Activity is measured by DNA content using SYBR green in vitro
Format: functional
measuredParameter: inhibition (%)
Respond with the bare value in %.

CC(C)(C)C(=O)Nc1ccc(N2CCN(C(c3ccccc3)c3ccccc3)CC2)c(Cl)c1; 4.93
COc1ccc(NC(=O)CSc2nc(-c3ccccc3Cl)ns2)cc1; -2.13
Cc1cnc(Nc2cccc(CCN3CCOCC3)c2)nc1NC(C)C; 2.69
CC(Nc1ncc(-c2ccsc2)c(-c2nccs2)n1)c1ccc2c(c1)OCCO2 (stereo not given); 7.42
CN1CCC(NCc2ccc(-c3cccc(-c4nc5ccccc5[nH]4)c3)cc2)CC1; 1.64
O=C(NCC1CCC(C(=O)O)CC1)c1ccc(/C=C/C(=O)N2CCc3ccccc3C2c2ccc3c(c2)OCO3)cc1 (stereo not given); 0.31

Lookup: inhibition / Glucose transporter (Leishmania mexicana) / CCOc1cc(NC(=O)Nc2ccnc3ccccc23)cc(OC)c1 7.94

Lookup: inhibition / Glucose transporter (Leishmania mexicana) / CCn1c(-c2nonc2N)nc2cnc(Oc3cccc(NC(=O)c4ccc(OCCN(C(C)C)C(C)C)cc4)c3)cc21 5.45

Lookup: inhibition / Glucose transporter (Leishmania mexicana) / COc1cccc(CN2CCC(N3CCc4cc(NC(=O)c5cc(C)on5)ccc43)C2)c1OC (stereo not given) 4.28

* * *

testedOn: Solute carrier family 2, facilitated glucose transporter member 1 (Homo sapiens) (UniProt P11166)
methodNotes: ST_JUDE_LEISH: Cytotoxicity at 2uM final concentration against transgenic Leishmania Mexicana promastigotes LmGLUT1 that are glucose transport deficient and complemented with the human glucose transporter GLUT1. Activity is measured by DNA content using SYBR green in vitro
Format: functional
measuredParameter: inhibition (%)
Respond with the bare value in %.

// solved cases for inhibition follow
CS(=O)(=O)Nc1cccc(-c2cnc3[nH]cc(-c4ccc(CN)cc4)c3c2)c1; 4.62
c1ccc(Oc2ccc(Nc3ccnc4cc(-c5csc(CNCCN6CCOCC6)n5)ccc34)cc2)cc1; -1.32
COC(=O)c1ccc(-c2ccc(C(=O)NCC3CCN(c4nc(N)c5cc(OC)c(OC)cc5n4)CC3)cc2)cc1; 4.1
COc1cc(NCCCNCc2cn(S(=O)(=O)c3ccccc3)c3ccccc23)nc2ccccc12; 3.92
COc1ccc(-c2cccc(NC(=O)c3cccc(C#N)c3)c2)cc1CN1CCNCC1; 11

I'd like to know its inhibition. The compound in question is N#Cc1ccc(-c2ccc(C(=O)NCCCCN3CCC(c4ccc5c(c4OCc4ccncc4)CCCC5)CC3)cc2)cc1 0.21

I'd like to know its inhibition. The compound in question is CC(C)(C)c1ccc(CN2CCC(NC(=O)c3ccc(-c4cccc(F)c4)s3)CC2)cc1 -0.34

I'd like to know its inhibition. The compound in question is O=C(Nc1cc(Oc2ccc(O)cc2)cc([N+](=O)[O-])c1)c1cc(-c2ccc(F)cc2)no1 2.24

I'd like to know its inhibition. The compound in question is CNC(=O)C(NC(=O)c1ccccc1C(=O)OC)c1ccccc1 (centres undefined) 1.77

* * *

testedOn: Glucose transporter (Leishmania mexicana) (UniProt O61059)
methodNotes: ST_JUDE_LEISH: Cytotoxicity at 2uM final concentration against transgenic Leishmania Mexicana promastigotes LmGT2 that are glucose transport deficient and complemented with the L. Mexicana glucose transporter 2. Activity is measured by DNA content using SYBR green in vitro
Format: functional
Consider the following compounds and their measured inhibition readings.
Respond with the bare value in %.

// solved cases for inhibition follow
CC[C@H](C)CNC(=O)c1cccc(-c2cccc(CN3CCC(N4CCCC4)CC3)c2)n1; -0.2
CN1CCN(Cc2ccc(-c3ccc4c(Nc5ccc(Oc6ccccn6)cc5)ccnc4c3)o2)CC1; -1.97
Cn1nccc1C(=O)NCCNCc1ccc(-c2ccc(-c3nc4ccccc4[nH]3)s2)cc1; 0.63
CC(C)CN1CCCN(Cc2cccc(NC(=O)c3ccc(-c4ccccc4)cc3)c2)CC1; -5.07

I'd like to know its inhibition. The compound in question is Cc1cccc2nc(-c3ccc(-c4cccc(CNCCNC(=O)c5ccnn5C)c4)cc3)[nH]c12 -3.68

I'd like to know its inhibition. The compound in question is COc1ccc(C=C2SC(=N)N(c3ccccc3OC)C2=O)cc1 6.86

I'd like to know its inhibition. The compound in question is CC(C)(CNCc1ccc(C(F)(F)F)cc1)c1nc(-c2ccnc(N)n2)c(-c2ccc(Cl)c(O)c2)[nH]1 2.94

I'd like to know its inhibition. The compound in question is O=C(NC1CCCc2ccccc21)[C@@H]1CCCN1C(=O)c1ccc(O)c(-c2cccc([N+](=O)[O-])c2)c1 (some centres undefined) 2.82

I'd like to know its inhibition. The compound in question is Cc1c(F)cc(C(=O)NC2CC2)cc1-c1ccc2c(cnn2S(=O)(=O)c2ccc(C#N)cc2)c1 0.73
